Every entry's value here was drawn from the supplement of paper PMC10307832.

# Tested on: NCI-H1944
# Test description: relative viability (nuclei count vs DMSO), 5 days (fraction); higher = more cells survive
# Applied conditions: first compound 0.04 µM
Result type: relative viability
Please give only the number in your answer, with no unit.

Some compounds with recorded relative viability:
O=C(O)c1ccc(-c2c[nH]c3ncc(-c4ccccc4)cc23)cc1C1CCCC1 + CS(=O)(=O)N1CCN(Cc2cc3nc(-c4cccc5[nH]ncc45)nc(N4CCOCC4)c3s2)CC1 [Pictilisib] (partner 1 µM) ... 0.359
O=C(O)c1ccc(-c2c[nH]c3ncc(-c4ccccc4)cc23)cc1C1CCCC1 + Cc1nc(NC(=O)N2CCC[C@H]2C(N)=O)sc1-c1ccnc(C(C)(C)C(F)(F)F)c1 [Alpelisib] (partner 2 µM) ... 0.871
O=C(O)c1ccc(-c2c[nH]c3ncc(-c4ccccc4)cc23)cc1C1CCCC1 + COc1cccc2cc(-c3nc([C@H]4CC[C@H](C(=O)O)CC4)n4ncnc(N)c34)[nH]c12 [OSI-027] (partner 0.5 µM) ... 0.429
O=C(O)c1ccc(-c2c[nH]c3ncc(-c4ccccc4)cc23)cc1C1CCCC1 + CC(=O)c1c(C)c2cnc(Nc3ccc(N4CCNCC4)cn3)nc2n(C2CCCC2)c1=O [Palbociclib] (partner 0.5 µM) ... 0.349
O=C(O)c1ccc(-c2c[nH]c3ncc(-c4ccccc4)cc23)cc1C1CCCC1 + CC1(C)CCC(c2ccc(Cl)cc2)=C(CN2CCN(c3ccc(C(=O)NS(=O)(=O)c4ccc(N[C@H](CCN5CCOCC5)CSc5ccccc5)c(S(=O)(=O)C(F)(F)F)c4)cc3)CC2)C1 [Navitoclax] (partner 0.5 µM) ... 1.01

Form field relative viability, entry O=C(O)c1ccc(-c2c[nH]c3ncc(-c4ccccc4)cc23)cc1C1CCCC1 + O=C(c1cc(Cc2n[nH]c(=O)c3ccccc23)ccc1F)N1CCN(C(=O)C2CC2)CC1 [Olaparib] (partner 8 µM) : 0.421

* * *

Below, each of the molecules is paired with its reported relative viability value.
# System: HCC-827
# Test description: relative viability (nuclei count vs DMSO), 5 days (fraction); higher = more cells survive
# Applied conditions: first compound 0.1 µM
Format: numeric value only, no unit, no commentary.

NC(=O)Nc1cc(-c2cccc(F)c2)sc1C(=O)N[C@H]1CCCNC1 [AZD7762] + Nc1nc2[nH]cc(CCc3ccc(C(=O)N[C@@H](CCC(=O)O)C(=O)O)cc3)c2c(=O)[nH]1 [Pemetrexed] (partner 0.2 µM) ... 0.211
NC(=O)Nc1cc(-c2cccc(F)c2)sc1C(=O)N[C@H]1CCCNC1 [AZD7762] + CC(=O)Nc1cccc(-n2c(=O)n(C3CC3)c(=O)c3c(Nc4ccc(I)cc4F)n(C)c(=O)c(C)c32)c1 [Trametinib] (partner 0.02 µM) ... 0.561
NC(=O)Nc1cc(-c2cccc(F)c2)sc1C(=O)N[C@H]1CCCNC1 [AZD7762] + O=C(c1cc(Cc2n[nH]c(=O)c3ccccc23)ccc1F)N1CCN(C(=O)C2CC2)CC1 [Olaparib] (partner 8 µM) ... 0.64

Field relative viability (system: HCC-827) for entry NC(=O)Nc1cc(-c2cccc(F)c2)sc1C(=O)N[C@H]1CCCNC1 [AZD7762] + C[C@]1(O)C[C@@H](c2nc(-c3ccc4ccc(-c5ccccc5)nc4c3)c3c(N)nccn32)C1 [Linsitinib] (partner 1 µM) = 0.922

Query NC(=O)Nc1cc(-c2cccc(F)c2)sc1C(=O)N[C@H]1CCCNC1 [AZD7762] + Cc1cc(Nc2cc(N3CCN(C)CC3)nc(Sc3ccc(NC(=O)C4CC4)cc3)n2)n[nH]1 [Tozasertib] (partner 0.1 µM) on HCC-827; relative viability returned: 0.409

Measured relative viability for this entry NC(=O)Nc1cc(-c2cccc(F)c2)sc1C(=O)N[C@H]1CCCNC1 [AZD7762] + CC(C)C[C@H](NC(=O)[C@H](Cc1ccccc1)NC(=O)c1cnccn1)B(O)O [Bortezomib] (partner 0.002 µM) on HCC-827: 1.16

* * *

molecules and their reported relative viability
# System: ChaGo-K-1
# Test description: relative viability (nuclei count vs DMSO), 5 days (fraction); higher = more cells survive
# Applied conditions: first compound 0.1 µM
Just the number, please.

Use these answered entries as a reference point.
NC(=O)Nc1cc(-c2cccc(F)c2)sc1C(=O)N[C@H]1CCCNC1 [AZD7762] + C[C@@H](Oc1cc(-c2cnn(C3CCNCC3)c2)cnc1N)c1c(Cl)ccc(F)c1Cl [Crizotinib] (partner 1 µM) ... 1.14
NC(=O)Nc1cc(-c2cccc(F)c2)sc1C(=O)N[C@H]1CCCNC1 [AZD7762] + CC1(C)CCC(c2ccc(Cl)cc2)=C(CN2CCN(c3ccc(C(=O)NS(=O)(=O)c4ccc(N[C@H](CCN5CCOCC5)CSc5ccccc5)c(S(=O)(=O)C(F)(F)F)c4)cc3)CC2)C1 [Navitoclax] (partner 0.5 µM) ... 0.913
NC(=O)Nc1cc(-c2cccc(F)c2)sc1C(=O)N[C@H]1CCCNC1 [AZD7762] + COc1cccc2cc(-c3nc([C@H]4CC[C@H](C(=O)O)CC4)n4ncnc(N)c34)[nH]c12 [OSI-027] (partner 0.5 µM) ... 0.56
NC(=O)Nc1cc(-c2cccc(F)c2)sc1C(=O)N[C@H]1CCCNC1 [AZD7762] + CCNC(=O)c1noc(-c2cc(C(C)C)c(O)cc2O)c1-c1ccc(CN2CCOCC2)cc1 [Luminespib] (partner 0.01 µM) ... 0.692

// moving on: another record for relative viability
get_value(item= NC(=O)Nc1cc(-c2cccc(F)c2)sc1C(=O)N[C@H]1CCCNC1 [AZD7762] + O=C(CCCCCCC(=O)Nc1ccccc1)NO [Vorinostat] (partner 1 µM) , readout=relative viability) returns 0.739

* * *

# Tested on: NCI-H838
# Test description: relative viability (nuclei count vs DMSO), 5 days (fraction); higher = more cells survive
# Applied conditions: first compound 0.1 µM
Result type: relative viability
The answer should be a number; do not append a unit.

NC(=O)Nc1cc(-c2cccc(F)c2)sc1C(=O)N[C@H]1CCCNC1 [AZD7762] + CC1(C)CCC(c2ccc(Cl)cc2)=C(CN2CCN(c3ccc(C(=O)NS(=O)(=O)c4ccc(N[C@H](CCN5CCOCC5)CSc5ccccc5)c(S(=O)(=O)C(F)(F)F)c4)cc3)CC2)C1 [Navitoclax] (partner 0.5 µM) ... 1.09

For reference, reported relative viability for NC(=O)Nc1cc(-c2cccc(F)c2)sc1C(=O)N[C@H]1CCCNC1 [AZD7762] + CC(C)C[C@H](NC(=O)[C@H](Cc1ccccc1)NC(=O)c1cnccn1)B(O)O [Bortezomib] (partner 0.002 µM) stands at 0.715

Entry NC(=O)Nc1cc(-c2cccc(F)c2)sc1C(=O)N[C@H]1CCCNC1 [AZD7762] + Cc1cc(Nc2cc(N3CCN(C)CC3)nc(Sc3ccc(NC(=O)C4CC4)cc3)n2)n[nH]1 [Tozasertib] (partner 0.1 µM) ; relative viability = 0.244

Measured relative viability, NC(=O)Nc1cc(-c2cccc(F)c2)sc1C(=O)N[C@H]1CCCNC1 [AZD7762] + COc1cccc2cc(-c3nc([C@H]4CC[C@H](C(=O)O)CC4)n4ncnc(N)c34)[nH]c12 [OSI-027] (partner 0.5 µM) : 0.415

Short answer for NC(=O)Nc1cc(-c2cccc(F)c2)sc1C(=O)N[C@H]1CCCNC1 [AZD7762] + Nc1nc2[nH]cc(CCc3ccc(C(=O)N[C@@H](CCC(=O)O)C(=O)O)cc3)c2c(=O)[nH]1 [Pemetrexed] (partner 0.2 µM) : relative viability was 0.177

Quick note, relative viability for NC(=O)Nc1cc(-c2cccc(F)c2)sc1C(=O)N[C@H]1CCCNC1 [AZD7762] + Nc1ncn([C@H]2C[C@H](O)[C@@H](CO)O2)c(=O)n1 [Decitabine] (partner 2 µM) landed at 0.531

* * *

# Tested on: NCI-H1666
# Test description: relative viability (nuclei count vs DMSO), 5 days (fraction); higher = more cells survive
# Applied conditions: first compound 0.005 µM
Result type: relative viability
In your answer, state the number alone without any accompanying words.

CC1(C)CCC(c2ccc(Cl)cc2)=C(CN2CCN(c3ccc(C(=O)NS(=O)(=O)c4ccc(N[C@H](CCN5CCOCC5)CSc5ccccc5)c(S(=O)(=O)C(F)(F)F)c4)cc3)CC2)C1 [Navitoclax] + COc1cc2c(Oc3ccc(NC(=O)C4(C(=O)Nc5ccc(F)cc5)CC4)cc3F)ccnc2cc1OCCCN1CCOCC1 [Foretinib] (partner 0.25 µM) ... 0.941
CC1(C)CCC(c2ccc(Cl)cc2)=C(CN2CCN(c3ccc(C(=O)NS(=O)(=O)c4ccc(N[C@H](CCN5CCOCC5)CSc5ccccc5)c(S(=O)(=O)C(F)(F)F)c4)cc3)CC2)C1 [Navitoclax] + Nc1nc2[nH]cc(CCc3ccc(C(=O)N[C@@H](CCC(=O)O)C(=O)O)cc3)c2c(=O)[nH]1 [Pemetrexed] (partner 0.2 µM) ... 0.867
CC1(C)CCC(c2ccc(Cl)cc2)=C(CN2CCN(c3ccc(C(=O)NS(=O)(=O)c4ccc(N[C@H](CCN5CCOCC5)CSc5ccccc5)c(S(=O)(=O)C(F)(F)F)c4)cc3)CC2)C1 [Navitoclax] + CC(=O)c1c(C)c2cnc(Nc3ccc(N4CCNCC4)cn3)nc2n(C2CCCC2)c1=O [Palbociclib] (partner 0.5 µM) ... 0.623
CC1(C)CCC(c2ccc(Cl)cc2)=C(CN2CCN(c3ccc(C(=O)NS(=O)(=O)c4ccc(N[C@H](CCN5CCOCC5)CSc5ccccc5)c(S(=O)(=O)C(F)(F)F)c4)cc3)CC2)C1 [Navitoclax] + O=C(c1cc(Cc2n[nH]c(=O)c3ccccc23)ccc1F)N1CCN(C(=O)C2CC2)CC1 [Olaparib] (partner 8 µM) ... 0.749
CC1(C)CCC(c2ccc(Cl)cc2)=C(CN2CCN(c3ccc(C(=O)NS(=O)(=O)c4ccc(N[C@H](CCN5CCOCC5)CSc5ccccc5)c(S(=O)(=O)C(F)(F)F)c4)cc3)CC2)C1 [Navitoclax] + NC(=O)Nc1cc(-c2cccc(F)c2)sc1C(=O)N[C@H]1CCCNC1 [AZD7762] (partner 0.2 µM) ... 0.934

Pending compound:
Form: compound = CC1(C)CCC(c2ccc(Cl)cc2)=C(CN2CCN(c3ccc(C(=O)NS(=O)(=O)c4ccc(N[C@H](CCN5CCOCC5)CSc5ccccc5)c(S(=O)(=O)C(F)(F)F)c4)cc3)CC2)C1 [Navitoclax] + Nc1ncn([C@H]2C[C@H](O)[C@@H](CO)O2)c(=O)n1 [Decitabine] (partner 2 µM) ; relative viability = 0.781
